Source: ChEMBL document CHEMBL1129314

- TARGET_UNDER_TEST: Kynurenine--oxoglutarate transaminase 1 (Rattus norvegicus)
- PROCEDURE_SUMMARY: Ratio of Vmax and Km for elimination of conjugates by rat renal cytosol
# if value of Vmax / Km (nM min-1 mg-1 mM-1) reaches 50, tag met; if it stays below, tag not met

COMPOUND | CAT
N[C@@H](C[Se]Cc1ccc(Cl)cc1)C(=O)O | met
CCCC[Se]C[C@H](N)C(=O)O | not met
COc1ccc([Se]C[C@H](N)C(=O)O)cc1 | not met
COc1ccc(C[Se]C[C@H](N)C(=O)O)cc1 | not met
CC[Se]C[C@H](N)C(=O)O | not met

Query :: Please indicate if the recorded Vmax / Km (nM min-1 mg-1 mM-1) for C[Se]CC(N)C(=O)O (single isomer, unassigned) meets or exceeds 50.
Result :: not met

Query :: Queued: Cc1ccc(C[Se]CC(N)C(=O)O)cc1 (single isomer, unassigned)
Result :: met

Query :: Queued: CC(C)[Se]C[C@H](N)C(=O)O
Result :: met

Query :: Queued: Cc1ccc([Se]CC(N)C(=O)O)cc1 (single isomer, unassigned)
Result :: not met

Query :: Queued: N[C@@H](C[Se]Cc1ccccc1)C(=O)O
Result :: met

Query :: Queued: N[C@@H](C[Se]c1ccc(Cl)cc1)C(=O)O
Result :: not met

Query :: Queued: N[C@@H](C[Se]c1ccccc1)C(=O)O
Result :: not met

Query :: Queued: CCC[Se]CC(N)C(=O)O (single isomer, unassigned)
Result :: not met

* * *

What Specific activity (nM min-1 mg-1) was measured for each of the following?
- TARGET_UNDER_TEST: Kynurenine--oxoglutarate transaminase 1 (Rattus norvegicus) (UniProt Q08415)
- Sequence (Q08415 whole entry, looked up): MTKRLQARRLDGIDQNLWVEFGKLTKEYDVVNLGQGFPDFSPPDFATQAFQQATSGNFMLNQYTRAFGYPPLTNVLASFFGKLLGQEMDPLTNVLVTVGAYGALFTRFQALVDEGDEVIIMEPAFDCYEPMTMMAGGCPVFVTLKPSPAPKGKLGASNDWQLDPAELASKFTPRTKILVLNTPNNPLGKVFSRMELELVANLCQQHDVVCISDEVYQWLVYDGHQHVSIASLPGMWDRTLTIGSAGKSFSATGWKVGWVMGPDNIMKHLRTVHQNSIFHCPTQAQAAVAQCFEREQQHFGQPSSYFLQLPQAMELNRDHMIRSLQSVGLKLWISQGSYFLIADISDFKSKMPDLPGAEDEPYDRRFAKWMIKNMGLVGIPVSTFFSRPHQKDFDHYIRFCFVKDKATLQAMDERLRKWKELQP
- PROCEDURE_SUMMARY: Specific activity against beta-elimination reaction by rat renal cytosolic beta-lyase after incubation with 0.2 mg of protein/mL for 10 min at 37 degree C using 1 mM substrate conc.
Give bare numbers.

COMPOUND | TARGET_UNDER_TEST | VALUE_OBSERVED
COc1ccc(CSC[C@H](N)C(=O)O)cc1 | Kynurenine--oxoglutarate transaminase 1 (Rattus norvegicus) (UniProt Q08415) | 0.1
CCC[Se]C[C@H](N)C(=O)O | Kynurenine--oxoglutarate transaminase 1 (Rattus norvegicus) (UniProt Q08415) | 3.3
COc1ccc([Se]C[C@H](N)C(=O)O)cc1 | Kynurenine--oxoglutarate transaminase 1 (Rattus norvegicus) (UniProt Q08415) | 4.3
N[C@@H](C[Se]c1ccc(Cl)cc1)C(=O)O | Kynurenine--oxoglutarate transaminase 1 (Rattus norvegicus) (UniProt Q08415) | 5.2
N[C@@H](CSCc1ccccc1)C(=O)O | Kynurenine--oxoglutarate transaminase 1 (Rattus norvegicus) (UniProt Q08415) | 0.2
N[C@@H](C[Se]c1ccccc1)C(=O)O | Kynurenine--oxoglutarate transaminase 1 (Rattus norvegicus) (UniProt Q08415) | 13.8
CCSC[C@H](N)C(=O)O | Kynurenine--oxoglutarate transaminase 1 (Rattus norvegicus) (UniProt Q08415) | 0.1
N[C@@H](C[Se]Cc1ccc(Cl)cc1)C(=O)O | Kynurenine--oxoglutarate transaminase 1 (Rattus norvegicus) (UniProt Q08415) | 11.6
Cc1ccc([Se]CC(N)C(=O)O)cc1 (single isomer, unassigned) | Kynurenine--oxoglutarate transaminase 1 (Rattus norvegicus) (UniProt Q08415) | 3.8
Cc1ccc(C[Se]CC(N)C(=O)O)cc1 (single isomer, unassigned) | Kynurenine--oxoglutarate transaminase 1 (Rattus norvegicus) (UniProt Q08415) | 13.1

Hello, I would appreciate it if you could give Specific activity (nM min-1 mg-1) for each entry below.
1. N[C@@H](C[Se]Cc1ccccc1)C(=O)O
2. N[C@@H](CSc1ccccc1)C(=O)O

Result ::
9.8
0.2

Hello, I would appreciate it if you could give Specific activity (nM min-1 mg-1) for each entry below.
1. CCC[Se]CC(N)C(=O)O (single isomer, unassigned)
2. C[Se]C[C@H](N)C(=O)O

Result ::
[8, 4]

Hello, I would appreciate it if you could give Specific activity (nM min-1 mg-1) for each entry below.
1. Cc1ccc(CSC[C@H](N)C(=O)O)cc1
2. CC(C)[Se]C[C@H](N)C(=O)O
3. CCCC[Se]C[C@H](N)C(=O)O
4. N[C@@H](C[Se]Cc1ccc(Cl)c(Cl)c1)C(=O)O
5. CC[Se]C[C@H](N)C(=O)O
6. Cc1ccc(C[Se]C[C@H](N)C(=O)O)cc1
7. Cc1ccc([Se]C[C@H](N)C(=O)O)cc1
8. C[Se]CC(N)C(=O)O (single isomer, unassigned)

Result ::
1. 0.3
2. 14.9
3. 0.9
4. 12.3
5. 11
6. 4.9
7. 0.1
8. 7.1

Query :: Recorded Specific activity (nM min-1 mg-1) of COc1ccc(C[Se]C[C@H](N)C(=O)O)cc1 , please.
Result :: 10.2
